TARGET_DESC: Catechol O-methyltransferase (Homo sapiens) (UniProt P21964)
Sequence (P21964 whole entry, looked up): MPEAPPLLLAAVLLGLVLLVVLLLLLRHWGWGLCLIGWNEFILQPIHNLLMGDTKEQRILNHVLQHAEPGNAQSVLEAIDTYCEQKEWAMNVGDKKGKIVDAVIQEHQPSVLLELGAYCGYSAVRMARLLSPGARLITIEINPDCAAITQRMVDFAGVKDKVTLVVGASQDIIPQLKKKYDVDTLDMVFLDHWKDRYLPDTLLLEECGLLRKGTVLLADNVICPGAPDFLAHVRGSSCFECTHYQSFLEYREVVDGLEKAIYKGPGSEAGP
ASSAY_METHOD_TEXT: Confirmatory Screen for Target Class Profiling of Small Molecule Inhibitors of Methyltransferases (AID 1745852)
PARTICULARS: MTase-Glo luminescence, SAH detection, recombinant enzyme; measured here: COMT max response; stronger effect = lower value
So I've got a bunch of compounds here, and I need their activity values.
Numbers only, in %.

INSERT INTO assay_data (compound, metric_name, test_result) VALUES
  ('COc1cc(C(=O)OCCCN2CCCN(CCCOC(=O)c3cc(OC)c(OC)c(OC)c3)CC2)cc(OC)c1OC', 'activity', -6.42);

Working through the 3 compounds below one at a time, give activity for each.
1. CCC(=O)c1ccc2c(c1)N(CCCN(C)C)c1ccccc1S2
2. COC(=O)[C@@H](N)Cc1ccc(O)c(O)c1
3. CN(C)CC[C@@H](c1ccc(Br)cc1)c1ccccn1

6.41
134
-5.16

Find the measured activity of NC1=NCC2c3ccccc3Cc3ccccc3N12 (stereo not given) and report it.
-1.67
